B1: Homeobox protein cut-like 1, residues 941 to 1008; numbered along this chain, P39880 (parent)
chain: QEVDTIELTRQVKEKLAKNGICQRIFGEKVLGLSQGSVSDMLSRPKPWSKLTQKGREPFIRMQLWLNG

Variants of: B1
Test: abundance fitness (aPCA) (normalised: wild type 0, dead -1); higher = more abundant; growth selection in yeast, the domain comes from the species named
Conditions: Homo sapiens
Everything with abundance fitness lower than -0.07 is n; everything else, including exactly -0.07, is y.

mutant_code: S39V
category_label: n
//
mutant_code: T52N
category_label: y
//
mutant_code: L31V
category_label: n
//
mutant_code: K13V
category_label: n
//
mutant_code: N19Q
category_label: y
//
mutant_code: L42K
category_label: y
//
mutant_code: R24D
category_label: n
//
mutant_code: T9W
category_label: n
//
mutant_code: L42Q
category_label: n
//
mutant_code: L16E
category_label: y
//
mutant_code: I6S
category_label: n
